- Subject Of Test: Cytochrome P450 2C19 (Homo sapiens)
- Sequence (P33261 whole entry): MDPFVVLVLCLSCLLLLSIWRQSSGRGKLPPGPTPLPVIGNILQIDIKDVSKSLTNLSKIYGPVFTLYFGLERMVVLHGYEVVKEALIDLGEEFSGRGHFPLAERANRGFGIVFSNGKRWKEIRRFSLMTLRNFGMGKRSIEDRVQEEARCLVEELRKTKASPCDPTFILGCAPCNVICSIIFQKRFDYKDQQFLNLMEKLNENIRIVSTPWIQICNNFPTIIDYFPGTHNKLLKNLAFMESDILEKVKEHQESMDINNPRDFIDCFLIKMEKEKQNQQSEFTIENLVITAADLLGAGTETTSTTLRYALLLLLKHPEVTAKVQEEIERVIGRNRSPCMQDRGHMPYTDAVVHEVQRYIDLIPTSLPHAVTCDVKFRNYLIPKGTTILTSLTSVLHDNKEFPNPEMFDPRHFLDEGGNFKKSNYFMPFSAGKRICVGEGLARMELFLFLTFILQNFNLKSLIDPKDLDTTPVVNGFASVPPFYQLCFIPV
- Assay Protocol: Cytochrome panel assay with activity outcomes. Panel member name: p450-cyp2c19 Compounds with AC50 equal or less than 10 uM are considered active
- Assay type: functional
- Settings: read-out: AC50
Reported Endpoint: AC50

Molecule | Reported Endpoint | Endpoint Value
CC(C)(C)c1cc2cccnc2n1Cc1cccc(F)c1 | AC50 | 11.2 µM (inconclusive)
O=C(/C=C\c1ccccc1)c1ccccc1O | AC50 | 3.98 µM (inconclusive)
CS(=O)(=O)N1CCC2(CCCN(C(c3ccccc3)c3ccccc3)C2)CC1 | AC50 | 20 µM (inconclusive)

====

- Subject Of Test: Replicative DNA helicase DnaB (Mycobacterium tuberculosis, UniProt P9WMR3)
- Sequence (P9WMR3 1-399, added parts left off): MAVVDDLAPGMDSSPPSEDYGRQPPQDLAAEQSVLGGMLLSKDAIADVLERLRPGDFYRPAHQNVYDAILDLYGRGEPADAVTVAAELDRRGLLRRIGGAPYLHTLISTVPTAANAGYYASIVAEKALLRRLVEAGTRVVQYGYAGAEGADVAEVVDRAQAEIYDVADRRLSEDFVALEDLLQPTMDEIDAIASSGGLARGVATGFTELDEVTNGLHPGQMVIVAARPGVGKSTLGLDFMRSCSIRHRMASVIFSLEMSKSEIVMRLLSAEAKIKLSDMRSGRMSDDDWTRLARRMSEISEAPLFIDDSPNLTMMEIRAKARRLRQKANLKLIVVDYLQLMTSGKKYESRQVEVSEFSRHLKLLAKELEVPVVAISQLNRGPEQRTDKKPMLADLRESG
- Assay Protocol: DnaB intein splicing inhibitors, dose response, biochemical, cell-free fluorescence (AID 449749)
- Type: functional
The source made the active and inactive calls.
Possible outcomes: active, inactive

Molecule | Subject Of Test | Qualitative Label
O=C(O)c1ccccc1-c1ccccc1C(=O)Nc1ccc(-c2nc3cc(Cl)ccc3o2)cc1 | Replicative DNA helicase DnaB (Mycobacterium tuberculosis, UniProt P9WMR3) | active
O=C(N/N=C/c1coc2ccc(Cl)cc2c1=O)c1ccc(O)cc1 | Replicative DNA helicase DnaB (Mycobacterium tuberculosis, UniProt P9WMR3) | inactive
COc1ccc(C(=O)c2c(C(F)(F)F)oc3c2C(=O)c2ccccc2C3=O)cc1 | Replicative DNA helicase DnaB (Mycobacterium tuberculosis, UniProt P9WMR3) | active
CC(=O)Nc1cccc(NC(=O)CSc2ncc(C(=O)Nc3ccccc3)c(=O)n2C)c1 | Replicative DNA helicase DnaB (Mycobacterium tuberculosis, UniProt P9WMR3) | active
O=C(CCl)N(Cc1cccc([N+](=O)[O-])c1)c1cccc(Cl)c1 | Replicative DNA helicase DnaB (Mycobacterium tuberculosis, UniProt P9WMR3) | active

====

- Subject Of Test: Induced myeloid leukemia cell differentiation protein Mcl-1 (Homo sapiens)
- Sequence (Q07820 whole entry): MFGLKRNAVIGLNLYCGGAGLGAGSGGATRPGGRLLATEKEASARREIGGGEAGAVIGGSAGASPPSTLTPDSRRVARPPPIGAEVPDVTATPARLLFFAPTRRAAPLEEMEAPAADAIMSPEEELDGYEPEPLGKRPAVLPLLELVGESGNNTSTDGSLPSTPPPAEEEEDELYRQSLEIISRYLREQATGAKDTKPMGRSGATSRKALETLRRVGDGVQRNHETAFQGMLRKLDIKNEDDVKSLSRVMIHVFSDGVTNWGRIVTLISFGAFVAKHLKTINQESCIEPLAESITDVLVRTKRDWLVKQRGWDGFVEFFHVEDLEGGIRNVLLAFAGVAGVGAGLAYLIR
- Assay type: functional
Calls of active or inactive are those of the source.

Molecule | IC50
COc1ccc2[nH]c3c(=O)n(Cc4ccc(C(=O)N5CCCC5)cc4)c(=S)[nH]c3c2c1 | 3500 nM (not active)
C=CCc1c(C)nc(SCCC)nc1O | 9100 nM (not active)
O=[N+]([O-])c1cccc(N/N=C/c2cc([N+](=O)[O-])ccc2O)c1 | < 400 nM (active)
COc1ccc(/C=C2/SC(=S)N(c3ccc(S(=O)(=O)Nc4nccs4)cc3)C2=O)cc1 | 1980 nM (active)
O=C(Nc1ccc(Cl)cc1)N1CCc2[nH]c3ccccc3c2C1 | 2320 nM (not active)
CCOC(=O)c1c(-c2ccc(C)cc2)csc1NC(=O)/C(C#N)=C/c1ccc(O)c(OC)c1 | > 54000 nM (active)

====

- Subject Of Test: Heat shock factor protein 1 (Mus musculus)
- Sequence (P38532 whole entry): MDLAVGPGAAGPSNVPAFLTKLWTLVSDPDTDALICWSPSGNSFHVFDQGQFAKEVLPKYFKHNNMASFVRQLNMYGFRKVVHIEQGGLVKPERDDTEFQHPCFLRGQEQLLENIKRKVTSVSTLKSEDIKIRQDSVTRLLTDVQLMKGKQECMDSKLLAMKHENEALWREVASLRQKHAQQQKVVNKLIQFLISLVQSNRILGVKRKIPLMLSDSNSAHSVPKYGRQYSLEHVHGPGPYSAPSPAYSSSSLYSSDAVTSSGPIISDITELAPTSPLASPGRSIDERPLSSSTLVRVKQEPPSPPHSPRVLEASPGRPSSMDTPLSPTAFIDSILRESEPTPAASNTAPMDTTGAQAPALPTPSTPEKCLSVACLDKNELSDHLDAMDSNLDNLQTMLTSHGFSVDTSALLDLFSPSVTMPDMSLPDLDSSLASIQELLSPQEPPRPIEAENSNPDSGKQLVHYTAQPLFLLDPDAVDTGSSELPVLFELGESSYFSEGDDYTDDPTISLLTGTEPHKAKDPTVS
- Assay Protocol: inhibition of MG132-induced HSE-luciferase signal, confirmation, cell-based, NIH3T3, luminescence, dose retest (AID 2382);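 note: NIH3T3 fibroblasts with HSF1-driven luciferase reporter stressed by proteasome inhibitor MG132; luminescence from HSF1-driven luciferase expression after 8 hours of MG132 stress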
- Assay type: functional
Activity calls are given as the source filed them.
Reported Endpoint: EC50

Molecule | Endpoint Value
COc1ccc(NS(=O)(=O)c2ccc3[nH]c(COc4ccc5ccccc5c4)nc3c2)cc1 | > 195 µM (not active)
Cc1ccccc1OCC(=O)Nc1ccc([N+](=O)[O-])cc1 | > 195 µM (not active)
O=Cc1ccc(OC(=O)Cc2ccc(F)cc2)cc1 | > 195 µM (not active)
O=C(CNC(=O)C12CC3CC(CC(C3)C1)C2)NCc1ccccc1 | > 195 µM (not active)
O=[N+]([O-])c1ccc(O)c(/C=N/c2ccc3oc(Cc4ccc(Cl)cc4)nc3c2)c1 | > 195 µM (not active)
O=C(Nc1ccc(N2CCCCC2)cc1)c1ccccn1 | < 0.16 µM (active)
Cn1ncc([N+](=O)[O-])c1C(=O)Nc1ccccc1Cl | > 195 µM (not active)
Fc1ccc(-c2nnc(NC3=NCCCCC3)o2)cc1 | 16 µM (active)
O=C(CN1C(=O)c2ccccc2S1(=O)=O)c1ccc2c(c1)OCCO2 | 0.418 µM (active)
O=C(Oc1oc(-c2ccco2)nc1/C=N/c1ccccc1)c1ccoc1 | > 195 µM (not active)
CCCN(CCC)C(=O)CSc1nc2ccsc2c(=O)n1NC(=O)c1ccccc1 | > 195 µM (not active)
